# systemUnderTest: UniProtKB Q9Y233
measurementKind: IC50 (nM)
Numbers only; they are read as nM.

Short answer please: IC50, UniProtKB Q9Y233, entry Cc1c(Cl)cc(Br)c2nc(CCc3nc(N4CCCC4)nn3C)nn12
1.01

For UniProtKB Q9Y233, provide IC50 of Cc1c(Cl)cc(OC(F)F)c2nc(CCc3nc(N4CCCC4)n(C)n3)nn12 please.
0.55

Hello, I am looking for reported IC50 with UniProtKB Q9Y233 for Cc1ncc(C)n2nc(CCc3nc(N4CC[C@@H](NC(=O)OC(C)(C)C)C4)nn3C)nc12 . Could you help?
171

Kindly state the measured IC50 obtained for Cc1cncc2nc(CCc3nc(N4CCCC4)nn3C)nn12 with UniProtKB Q9Y233.
251

Reported IC50 for UniProtKB Q9Y233, given Cc1cc(Cl)c(C)n2nc(/C=C/c3nc(N4CCCC4)n(C)n3)nc12 ?
0.15

====

Parameter log10 IC50, tested on human PDE10A (Homo sapiens (Human), UniProt Q9Y233), listed per item.
Sequence (Q9Y233 other isoform, or with tags, fused parts or gaps): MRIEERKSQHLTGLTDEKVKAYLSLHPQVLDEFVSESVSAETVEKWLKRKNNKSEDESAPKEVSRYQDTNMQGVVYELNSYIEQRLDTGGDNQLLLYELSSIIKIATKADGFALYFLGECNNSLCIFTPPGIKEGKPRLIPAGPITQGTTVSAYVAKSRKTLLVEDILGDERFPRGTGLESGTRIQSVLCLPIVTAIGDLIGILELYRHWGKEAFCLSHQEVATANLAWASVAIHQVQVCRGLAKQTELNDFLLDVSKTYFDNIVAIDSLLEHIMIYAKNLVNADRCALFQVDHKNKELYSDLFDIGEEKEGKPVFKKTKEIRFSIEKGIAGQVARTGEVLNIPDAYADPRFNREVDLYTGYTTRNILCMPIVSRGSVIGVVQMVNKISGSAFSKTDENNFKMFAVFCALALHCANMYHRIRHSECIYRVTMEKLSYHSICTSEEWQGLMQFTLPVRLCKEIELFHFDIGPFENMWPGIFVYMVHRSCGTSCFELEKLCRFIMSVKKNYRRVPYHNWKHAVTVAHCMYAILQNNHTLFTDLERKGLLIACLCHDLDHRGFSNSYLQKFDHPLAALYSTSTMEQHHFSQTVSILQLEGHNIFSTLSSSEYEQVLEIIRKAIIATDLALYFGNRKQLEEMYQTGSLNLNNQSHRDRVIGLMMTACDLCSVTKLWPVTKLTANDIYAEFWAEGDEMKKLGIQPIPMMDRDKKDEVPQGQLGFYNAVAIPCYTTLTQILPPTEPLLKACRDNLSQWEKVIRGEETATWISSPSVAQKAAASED
Hi team, quick reminder: these entries are log10 of IC50 (nM).

Looking for the measured log10 IC50 of Cc1c(Cl)cc(C2CC2)c2nc(CCc3nc(N4CCCC4)nn3C)nn12 , can you help?
1.00

Need log10 IC50 of COc1cc(Cl)c(C)n2nc(CCc3nc(N4CCCC4)nn3C)nc12 , thanks.
-0.36

Requested read-out: log10 IC50. Entry: Cc1c(Br)cc(Cl)c2nc(CCc3nc(N4CCCC4)nn3C)nn12
0.09

Name the reported log10 IC50 value associated with the molecule Cc1ncc(C)n2nc(CCc3nc(N4CC(F)(F)C4)nn3C)nc12
2.68

Quick check: log10 IC50 of Cc1cnc(C)n2nc(CCc3nc(N4CCC[C@@H]4C)nn3C)nc12 ?
0.95

Give the measured log10 IC50 of Cc1nc(C)n2nc(CCc3nc(N4CCCC4)nn3C)nc2c1Cl .
0.97

Which log10 IC50 is listed for Cc1cccc2nc(CCc3nc(N4CCCC4)nn3C)nn12 ?
1.75

Item under review: Cc1cnc(C)n2nc(CCc3nc(N4CCC[C@H]4C)nn3C)nc12 . Reported log10 IC50?
2.12

May I ask what log10 IC50 has been recorded for CCc1cc(C(F)(F)F)c2nc(CCc3nc(N4CCCC4)nn3C)nn2c1C ?
0.54

Quick check: log10 IC50 of Cc1ncc(C)n2nc(CCc3nc(N4CCCC4)nn3CC(F)(F)F)nc12 ?
1.23

I have this molecule here, Cc1ncc(C)n2nc(CCc3nc(N4CCCC4)n(CC4CC4)n3)nc12 [Example 117b] , and I need its recorded log10 IC50.
0.83

For the molecule shown here, Cc1c(Cl)cc(C(F)(F)F)c2nc(C#Cc3nc(N4CCCC4)nn3C)nn12 , give the reported log10 IC50.
-0.06

Query: log10 IC50; subject: COC[C@H]1CCCN1c1nc(CCc2nc3c(C)ncc(C)n3n2)n(C)n1
1.15

Need log10 IC50, item Cc1c(Cl)cc(Cl)c2nc(CCc3nc(N4CCCC4)nn3C)nn12
-0.20

Consider the molecule Cc1cc(C)n2nc(CCc3nc(N4CCCC4)nn3C)nc2n1 and give its measured log10 IC50.
1.37

Recorded log10 IC50 for Cc1c(C#N)cc(C(F)(F)F)c2nc(CCc3nc(N4CCCC4)nn3C)nn12 , please?
0.84

Need log10 IC50, item Cc1c(Cl)cc(Cl)c2nc(CCc3n[nH]c(N4CCCC4)n3)nn12
-0.66

Consider the molecule CCn1nc(N2CCCC2)nc1/C=C/c1nc2c(C)ncc(C)n2n1 and give its measured log10 IC50.
1.08

Reported log10 IC50 for Clc1ccc2ncc(CCc3n[nH]c(N4CCCC4)n3)nc2c1 : what is it?
1.52

====

# systemUnderTest: human PDE10A (Homo sapiens (Human), UniProt Q9Y233)
measurementKind: pIC50
Scale explanation: pIC50 corresponds to minus log10 of a concentration expressed in moles per litre.

For the molecule shown here, Cc1cc(C(F)(F)F)c2nc(CCc3nc(N4CCCC4)nn3C)nn2c1C [Example 84] , give the reported pIC50.
8.84

Which pIC50 value is on record for Cc1c(Cl)cc(C(F)(F)F)c2nc(CCc3nc(N4CCCC4)nn3C3CCOCC3)nn12 [Example 122] ?
9.46

Any idea what pIC50 was measured for Cn1nc(N2CCCC2)nc1CCc1nc2ccc(Cl)cn2n1 [Example 26] ?
7.20

Dear colleague, I am looking for the recorded pIC50 of the following molecule: Cn1nc(N2CCCC2)nc1CCc1nc2ccc(C#N)cn2n1 [Example 53]
6.42

Item Cc1nc2ccccc2nc1CCc1nc(N2CCCC2)nn1C [Example 16] has what recorded pIC50?
7.21

====

measurementKind: pIC50
When answering, recall that pIC50 equals minus log10 of the concentration in mol/L, and write that number alone.

Look up pIC50 with human PDE10A (Homo sapiens (Human), UniProt Q9Y233) for this compound: Cc1ncc(C)n2nc(CCc3nc(N4CCCC4C)nn3C)nc12 (stereo not drawn)
7.55

For the record Cc1ncc(C)n2nc(CCc3nc(N4CC[C@H](C)C4)nn3C)nc12 , what value of pIC50 is listed for human PDE10A (Homo sapiens (Human), UniProt Q9Y233)?
8.26

Notebook entry, human PDE10A (Homo sapiens (Human), UniProt Q9Y233) assay: pIC50 of Cc1ncc(C)n2nc(/C=C/c3nc(N(C)C4CC4)nn3C)nc12 = ?
7.37

====

# systemUnderTest: human PDE10A (Homo sapiens (Human), UniProt Q9Y233)
pIC50: −log10 of the molar value.
Assign class by pIC50: not lower than 8 means Fulfilled; lower than 8 means Not fulfilled.

Please check the record CCn1nc(C#Cc2nc3c(C)ncc(C)n3n2)nc1N1CCCC1 [Example 47] and state if its pIC50 is at or above 8.
Fulfilled

pIC50 >= 8 for Cc1ncc(C)n2nc(CCc3nc(N4CC5CCC5C4)nn3C)nc12 (centres unmarked) [Example 99] ?
Not fulfilled

Check if pIC50 >= 8 (inclusive). Item: CCn1nc(N2CCCC2)nc1CCc1nc2c(C)ncc(C)n2n1 [Example 2]
Fulfilled

Could you verify whether the entry COC1CCN(c2nc(CCc3nc4c(C)ncc(C)n4n3)n(C)n2)C1 (centres unmarked) [Example 43] shows pIC50 of no less than 8?
Not fulfilled

Could you verify whether the entry Cc1nc2ccc(Cl)cc2nc1C#Cc1nc(N2CCCC2)nn1C [Example 136] shows pIC50 of no less than 8?
Fulfilled
